Where do the numbers come from? From patent US20250382332A1.

In this section, each of the compounds is paired with its reported Inhibition at 100 μM.
# Test system: Botrytis cinerea (B05.10)
# test: Resazurin antifungal assay of 180 alpha-factor peptide variants towards Botrytis (Example 2)
# Type: cell-based
# assay setup: % inhibition of fungal growth, Botrytis conidia, peptide 100 μM, resazurin
# Procedure: The antifungal activity of 180 alpha-factor peptide variants towards Botrytis was tested. Experimental design: […] Fungal conidia were harvested by scraping a Botrytis plate flooded with 1 ml water with 0.1% Tween 80 solution. […] The conidia concentration of the resulting solution was counted using a hemocytometer. […] Peptides were tested for activity against Botrytis, using the resazurin assay. […] Fluorescence was measured at 570/620 nm after 4 h of incubation with resazurin. […]
Peptide text beside a SMILES is read from it.

CC[C@H](C)[C@H](NC(=O)[C@@H](NC(=O)[C@H](CC(C)C)NC(=O)[C@H](Cc1c[nH]c2ccccc12)NC(=O)[C@H](Cc1c[nH]cn1)NC(=O)[C@@H]1CCCN1)[C@@H](C)O)C(=O)N[C@@H](CCCCN)C(=O)N1CCC[C@H]1C(=O)NCC(=O)N[C@@H](CCC(N)=O)C(=O)N1CCC[C@H]1C(=O)N[C@@H](CCSC)C(=O)N[C@@H](Cc1ccc(O)cc1)C(=O)O [compound 30] (H-PHWLTIKPGQPMY-OH; N-terminus and C-terminus assumed) :: <90%
CC[C@H](C)[C@H](NC(=O)[C@H](Cc1c[nH]c2ccccc12)NC(=O)[C@H](Cc1c[nH]cn1)NC(=O)[C@@H](N)CCCCN)C(=O)N[C@@H](CCCCN)C(=O)N[C@@H](CC(C)C)C(=O)N[C@@H](CCSC)C(=O)N1CCC[C@H]1C(=O)NCC(=O)N[C@@H](CCC(N)=O)C(=O)NCC(=O)N[C@@H](CCSC)C(=O)N[C@@H](Cc1ccc(O)cc1)C(=O)O [compound 8] (H-KHWIKLMPGQGMY-OH; N-terminus and C-terminus assumed) :: 100%
CSCC[C@H](NC(=O)[C@@H]1CCCN1C(=O)[C@H](CCC(N)=O)NC(=O)CNC(=O)[C@@H]1CCCN1C(=O)[C@H](Cc1c[nH]c2ccccc12)NC(=O)[C@H](Cc1ccccc1)NC(=O)[C@H](CCC(N)=O)NC(=O)CNC(=O)[C@@H](NC(=O)[C@H](CCCNC(=N)N)NC(=O)[C@@H](N)Cc1c[nH]c2ccccc12)[C@@H](C)O)C(=O)N[C@@H](Cc1ccc(O)cc1)C(=O)O [compound 146] (H-WRTGQFWPGQPMY-OH; N-terminus and C-terminus assumed) :: <90%

Entry CSCC[C@H](NC(=O)CNC(=O)[C@H](CO)NC(=O)CNC(=O)[C@@H]1CCCN1C(=O)[C@H](CCCCN)NC(=O)[C@H](CC(C)C)NC(=O)[C@H](CCCNC(=N)N)NC(=O)[C@H](CC(C)C)NC(=O)[C@H](Cc1ccc(O)cc1)NC(=O)[C@H](CCCNC(=N)N)NC(=O)[C@@H](N)Cc1c[nH]c2ccccc12)C(=O)N[C@@H](Cc1ccc(O)cc1)C(=O)O [compound 55] (H-WRYLRLKPGSGMY-OH; N-terminus and C-terminus assumed) , system Botrytis cinerea (B05.10): what Inhibition at 100 μM was measured? 100%

Entry CSCC[C@H](NC(=O)[C@@H]1CCCN1C(=O)[C@H](CCC(N)=O)NC(=O)CNC(=O)[C@H](CC(N)=O)NC(=O)[C@H](CCCCN)NC(=O)[C@H](CC(C)C)NC(=O)[C@H](CCCCN)NC(=O)[C@H](CC(C)C)NC(=O)[C@H](Cc1c[nH]c2ccccc12)NC(=O)[C@H](CCC(N)=O)NC(=O)[C@@H](N)CCCCN)C(=O)N[C@@H](Cc1ccc(O)cc1)C(=O)O [compound 91] (H-KQWLKLKNGQPMY-OH; N-terminus and C-terminus assumed) , system Botrytis cinerea (B05.10): what Inhibition at 100 μM was measured? 100%
